// data source = paper PMC8222254

Test system: A549
assayNotes: Chemosensitivity, 96 h continuous exposure, MTT assay
Format: cell-based, human
recordedConditions: A549; read-out: Mean IC50 values
parameterMeasured: IC50 (nM)
Please reply with the bare figure in nM and do not write the unit itself.

Form: compound = O=P([O-])([O-])Oc1ccccc1.[Cu+2].[Cu+2].[Cu+2].c1ccc(-c2csc(NCCN(CCNc3nc(-c4ccccn4)cs3)CCNc3nc(-c4ccccn4)cs3)n2)nc1.c1ccc(-c2csc(NCCN(CCNc3nc(-c4ccccn4)cs3)CCNc3nc(-c4ccccn4)cs3)n2)nc1 [[L2Cu3(O3POPh)]4+] ; IC50 = 1710

Recorded result, O=S(=O)([O-])[O-].[Cu+2].[Cu+2].[Cu+2].c1ccc(-c2csc(NCCN(CCNc3nc(-c4ccccn4)cs3)CCNc3nc(-c4ccccn4)cs3)n2)nc1.c1ccc(-c2csc(NCCN(CCNc3nc(-c4ccccn4)cs3)CCNc3nc(-c4ccccn4)cs3)n2)nc1 [[L2Cu3(SO4)]4+] , IC50: 680

O=P([O-])([O-])[O-].[Cu+2].[Cu+2].[Cu+2].c1ccc(-c2csc(NCCN(CCNc3nc(-c4ccccn4)cs3)CCNc3nc(-c4ccccn4)cs3)n2)nc1.c1ccc(-c2csc(NCCN(CCNc3nc(-c4ccccn4)cs3)CCNc3nc(-c4ccccn4)cs3)n2)nc1 [[L2Cu3(PO4)]3+] has a reported IC50 of 1220

Value of IC50 reported for the compound CC(=O)[O-].CC(=O)[O-].CC(=O)[O-].CC(=O)[O-].CC(=O)[O-].CC(=O)[O-].[Zn+2].[Zn+2].[Zn+2].c1ccc(-c2csc(NCCN(CCNc3nc(-c4ccccn4)cs3)CCNc3nc(-c4ccccn4)cs3)n2)nc1.c1ccc(-c2csc(NCCN(CCNc3nc(-c4ccccn4)cs3)CCNc3nc(-c4ccccn4)cs3)n2)nc1 [[L2Zn3]6+] is 403

The compound listed as [Cu+2].[Cu+2].[Cu+2].c1ccc(-c2csc(NCCN(CCNc3nc(-c4ccccn4)cs3)CCNc3nc(-c4ccccn4)cs3)n2)nc1.c1ccc(-c2csc(NCCN(CCNc3nc(-c4ccccn4)cs3)CCNc3nc(-c4ccccn4)cs3)n2)nc1 [[L2Cu3]6+] shows IC50 equal to 233

Entry under test: O=S(=O)(O)O.[Zn+2].[Zn+2].[Zn+2].c1ccc(-c2csc(NCCN(CCNc3nc(-c4ccccn4)cs3)CCNc3nc(-c4ccccn4)cs3)n2)nc1.c1ccc(-c2csc(NCCN(CCNc3nc(-c4ccccn4)cs3)CCNc3nc(-c4ccccn4)cs3)n2)nc1 [[L2Zn3(SO4)]4+] . Its IC50 was 582

Form: compound = CC(=O)[O-].CC(=O)[O-].CC(=O)[O-].O=P([O-])([O-])[O-].[Zn+2].[Zn+2].[Zn+2].c1ccc(-c2csc(NCCN(CCNc3nc(-c4ccccn4)cs3)CCNc3nc(-c4ccccn4)cs3)n2)nc1.c1ccc(-c2csc(NCCN(CCNc3nc(-c4ccccn4)cs3)CCNc3nc(-c4ccccn4)cs3)n2)nc1 [[L2Zn3(PO4)]3+] ; IC50 = 501

GET /value?item= O=P(O)(O)Oc1ccccc1.[Zn+2].[Zn+2].[Zn+2].c1ccc(-c2csc(NCCN(CCNc3nc(-c4ccccn4)cs3)CCNc3nc(-c4ccccn4)cs3)n2)nc1.c1ccc(-c2csc(NCCN(CCNc3nc(-c4ccccn4)cs3)CCNc3nc(-c4ccccn4)cs3)n2)nc1 [[L2Zn3(O3POPh)]4+] &field=IC50 returns 739
